The measurements presented in this section are drawn from patent US7348425B2.

- test-system: HCV NS5B RdRp genotype 1b (Hepatitis C virus genotype 1b)
- Construct: The protein was expressed with an 18 amino acid C-terminal truncation to enhance the solubility; made in house; host or cells: E. coli BL21 (DE3), pET21a
- Sequence (Q9WMX2 2420-2992): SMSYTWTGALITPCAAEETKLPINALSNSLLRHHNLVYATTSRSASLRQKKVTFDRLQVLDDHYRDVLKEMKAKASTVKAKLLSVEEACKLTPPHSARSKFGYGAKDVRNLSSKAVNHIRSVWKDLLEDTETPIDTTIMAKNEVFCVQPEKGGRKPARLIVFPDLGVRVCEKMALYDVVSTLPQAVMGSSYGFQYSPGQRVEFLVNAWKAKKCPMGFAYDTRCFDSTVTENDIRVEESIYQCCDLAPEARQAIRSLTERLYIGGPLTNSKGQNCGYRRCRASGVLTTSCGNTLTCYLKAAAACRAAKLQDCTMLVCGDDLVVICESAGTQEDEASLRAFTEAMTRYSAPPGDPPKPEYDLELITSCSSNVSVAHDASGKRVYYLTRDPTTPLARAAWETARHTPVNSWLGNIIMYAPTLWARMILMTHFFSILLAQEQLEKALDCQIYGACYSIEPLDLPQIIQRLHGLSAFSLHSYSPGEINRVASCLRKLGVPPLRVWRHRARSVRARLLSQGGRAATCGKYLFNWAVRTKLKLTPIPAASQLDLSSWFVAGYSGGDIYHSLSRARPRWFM
- protocol-details: Modified HCV NS5B RdRp enzyme assay (with preincubation)
- Type: biochemical
- condition-description: preincubation protocol
Let's look at some molecules and their measured IC50.

Solved entries:
molecule: COC(=O)c1ccc2c(C3CCCCC3)c3n(c2c1)C(O)c1cc(OC)ccc1-3 (stereo not shown)
test-system: HCV NS5B RdRp genotype 1b (Hepatitis C virus genotype 1b)
result: > 1 µM
//
molecule: CN(C)S(=O)(=O)NC(=O)c1ccc2c(C3CCCCC3)c3n(c2c1)CCCNc1ccccc1-3
test-system: HCV NS5B RdRp genotype 1b (Hepatitis C virus genotype 1b)
result: 0.01 to 1 µM

Sample CNCCNC(=O)c1ccc2c(C3CCCCC3)c3n(c2c1)CC(C(=O)N1C[C@@H](C)O[C@@H](C)C1)=Cc1ccccc1-3 ; IC50 observed: 0.01 to 1 µM

The molecule listed as COc1cc2c(cn1)-c1c(C3CCCCC3)c3ccc(C(=O)NS(=O)(=O)N(C)C)cc3n1CC(C(=O)N1C[C@@H](C)O[C@@H](C)C1)=C2 shows IC50 equal to 1 to 10 µM
